- System: SF-268
- experimentDescription: NCI tumour cell line growth inhibition, 48 h
Activity calls are given as the source filed them. No stated cut-off is given here; in the data, active = GI50 up to about 1.1 µM and inactive = higher.
Measured GI50 values are reported for all entries that follow.

Previously resolved entries follow.
- compound: "CC(=O)O[C@H]1[C@@H](OC2CCCC2(c2ccccc2)c2ccccc2)O[N+]([O-])=C[C@@H]1c1ccccc1 (stereo not given in full)"
  observedValue: "5.01 µM (inactive)"
- compound: "CCOC(=O)C(=O)Nc1ccccc1C"
  observedValue: "> 100 µM (inactive)"
- compound: "N#C/C(=C\\c1cc(F)cc(F)c1)c1ccccn1"
  observedValue: "19.4 µM (inactive)"
- compound: "CCCCCCCCCCCCCCCCOCC(Cl)CP(=O)(O)OP(=O)(O)OCC1OC(n2cnc3c(N)ncnc32)C(O)C1O (stereo not given)"
  observedValue: "> 100 µM (inactive)"

Q: Quick one: GI50 of COc1cccc2c1-c1c(OC)cccc1SS2 ?
Ans: 22.6 µM (inactive)
